# EXPERIMENT NOTES: solvent given as SMILES
# SETUP CONDITIONS: in O
Record form. Attribute: absorption maximum. Fill in for each entry.
State the value with its unit after it.

Consider the following items and state reported absorption maximum for each.
1. CC[N+](CC)=c1ccc2cc3c(oc-2c1)-c1ccc(N(C)C)cc1CC3
2. COc1cccc2oc(-c3cc4c(OC)cccc4oc3=O)cc12
3. CC[N+]1(CC)CN2C(=N1)C(C(=O)O)=Cc1ccc(Cl)cc12
4. O=c1c2ccccc2[nH]c2ccccc12
5. Cc1ccc(C(=O)/C=C2\C(=O)Nc3ccccc32)cc1C
6. CN(C)c1ccc(/C=C/C(=O)O)cc1
7. Cc1ccc(N(CC(=O)[O-])CC(=O)[O-])cc1OCCOc1cc(-c2cc3ccc(C(=O)[O-])cc3[nH]2)ccc1N(CC(=O)[O-])CC(=O)[O-]
8. CCCN1C(=O)C(=CC=CC=C2Oc3ccccc3N2CCCS(=O)(=O)[O-])C(=O)N(CCC)C1=S

Response:
604 nm
384 nm
367 nm
385 nm
338 nm
323 nm
349 nm
530 nm

Please supply absorption maximum for each of the following items, keeping them in order.
1. NC(=O)C1=CN([C@H]2C[C@H](O)[C@@H](COP(=O)([O-])OP(=O)([O-])OC[C@H]3O[C@@H](n4cnc5c(N)ncnc54)C[C@@H]3O)O2)C=CC1
2. N#CC(C#N)=Cc1ccc(-c2cccc(-c3nc4ccccc4s3)c2O)o1
3. CC1(C)CC(=O)C2=C(C1)Oc1ccc3cc(O)ccc3c1C2c1ccccn1 (stereo unspecified)

Response:
350 nm
443 nm
347 nm
